experimental-system: furin, P09958;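 also: purified furin at 1:10 enzyme:substrate in 50 mM HEPES pH 7.5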
Sequence (P09958 whole entry): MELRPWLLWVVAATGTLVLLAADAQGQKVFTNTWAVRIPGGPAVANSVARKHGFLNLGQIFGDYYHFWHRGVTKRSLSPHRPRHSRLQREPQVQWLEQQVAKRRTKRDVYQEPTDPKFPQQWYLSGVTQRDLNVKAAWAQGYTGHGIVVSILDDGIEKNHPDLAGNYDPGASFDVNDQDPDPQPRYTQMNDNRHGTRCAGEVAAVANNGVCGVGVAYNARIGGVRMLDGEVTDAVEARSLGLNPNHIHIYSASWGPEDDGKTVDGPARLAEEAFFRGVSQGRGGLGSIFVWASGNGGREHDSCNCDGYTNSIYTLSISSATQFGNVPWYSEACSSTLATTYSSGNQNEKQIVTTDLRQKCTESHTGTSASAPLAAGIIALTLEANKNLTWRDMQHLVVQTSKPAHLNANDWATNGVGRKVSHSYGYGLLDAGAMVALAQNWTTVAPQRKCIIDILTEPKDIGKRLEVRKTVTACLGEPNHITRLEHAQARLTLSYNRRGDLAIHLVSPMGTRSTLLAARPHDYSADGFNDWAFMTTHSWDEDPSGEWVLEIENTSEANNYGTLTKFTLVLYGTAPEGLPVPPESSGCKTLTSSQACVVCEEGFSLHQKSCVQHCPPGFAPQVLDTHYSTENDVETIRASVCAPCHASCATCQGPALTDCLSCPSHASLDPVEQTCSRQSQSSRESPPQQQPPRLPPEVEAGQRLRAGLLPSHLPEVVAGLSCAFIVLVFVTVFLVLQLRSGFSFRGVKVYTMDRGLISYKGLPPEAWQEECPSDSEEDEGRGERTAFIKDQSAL
method-description: furin cleavage Z-score vs untreated control; higher = more cleavage, active = 3.5 or more, inactive = 1 or less, 8 variable residues between constant flanks
test-conditions: 15 min
This is one part of the list. No count for the full screen is at hand.
just bin them by furin cleavage Z-score: bottom bin = under 0.6, middle bin = from 0.6 up to 9, top bin = 9 and over

# item-sequence, class
rows = [
    ("CAVTNDCPNSAGNASASA [HC262]", "bottom bin"),
    ("CARTRRCVCVAGNASASA [FS-3213]", "bottom bin"),
    ("CATQVRRRRFAGNASASA [FS-1497]", "top bin"),
    ("CAKDYRRIRFAGNASASA [FS-173]", "bottom bin"),
    ("CARTRRTSKPAGNASASA [FS-1937]", "middle bin"),
    ("CAVRSRSIRSAGNASASA [FS-1663]", "top bin"),
    ("CARTRRNIDAAGNASASA [FS-3111]", "middle bin"),
    ("CAPLEVVTSTAGNASASA [HC2279]", "middle bin"),
    ("CAEVGCHRPSAGNASASA [HC2356]", "middle bin"),
    ("CATTPCQGSWAGNASASA [HC79]", "middle bin"),
    ("CAILTRRRRFAGNASASA [FS-1347]", "middle bin"),
    ("CAASSRNIRSAGNASASA [FS-924]", "middle bin"),
    ("CAGLRRRRRFAGNASASA [FS-531]", "middle bin"),
    ("CASTGLYHVTAGNASASA [HC259]", "bottom bin"),
    ("CARVARRRRFAGNASASA [FS-1164]", "top bin"),
]
